Recorded progressively motile sperm values for a group of compounds are listed next.
test system: human spermatozoa; experiment: progressively motile sperm, percent change vs DMSO (non-capacitating); higher = more of the measured sperm population than DMSO, for viability, fewer PI-positive (dead) cells than DMSO; extreme values may be limits of the assay; details: incubation time: 6h incubation, 29.9 µM
Counter-ions that a name gives are not always drawn.
Note: a bare number is incomplete; add the unit.

In the examples that follow, each entry is paired with its recorded progressively motile sperm.
* Cc1[nH]c(/C=C2\C(=O)Nc3ccc(S(=O)(=O)Cc4c(Cl)cccc4Cl)cc32)c(C)c1C(=O)N1CCC[C@@H]1CN1CCCC1 | -82%
* COC(=O)[C@]1(C)CC[C@]2(C)CC[C@]3(C)C4=CC=C5C(=CC(=O)C(O)=C5C)[C@]4(C)CC[C@@]3(C)[C@@H]2C1 [Pristimerin] | -99.9%

What reported progressively motile sperm corresponds to NC(=O)Nc1cc(-c2cccc(F)c2)sc1C(=O)N[C@H]1CCCNC1 [AZD 7762 hydrochloride] on human spermatozoa?
-49.2%

====

Recorded total motile sperm values for a group of compounds are listed next.
system: human spermatozoa; test: total motile sperm, percent change vs DMSO (non-capacitating); higher = more of the measured sperm population than DMSO, for viability, fewer PI-positive (dead) cells than DMSO; conditions: incubation time: 10min incubation, 9.99 µM
Expressed in %, but write only the number.

• O=c1c(-c2ccc(O)cc2)coc2cc(O)cc(O)c12 = -0.344
• CO[C@H]1[C@@H](OC)C[C@H](C)[C@@H](OC)C2=CC(=O)C=C(NC(=O)/C(C)=C/C=C/[C@H](OC)[C@@H](OC(N)=O)/C(C)=C/[C@@H]1C)C2=O = 7.08
• CCCCCCOC(=O)[C@]1(O)C[C@@H]2O[C@@]1(C)n1c3ccccc3c3c4c(c5c6ccccc6n2c5c31)C(=O)NC4 = -0.664

Item CN(C)CCCn1cc(C2=C(c3c[nH]c4ccccc34)C(=O)NC2=O)c2ccccc21 has what recorded total motile sperm?
1.63

Item CCOc1ccccc1OCCN[C@H](C)Cc1ccc(OC)c(S(N)(=O)=O)c1 has what recorded total motile sperm?
4.75

Item CCc1cc(Nc2nccc(-c3c(-c4ccc(OC)c(C(=O)Nc5c(F)cccc5F)c4)nc4ccccn34)n2)c(OC)cc1N1CCC(N2CCN(S(C)(=O)=O)CC2)CC1 has what recorded total motile sperm?
-4.19

Item C[C@]1(O)C[C@@H](c2nc(-c3ccc4ccc(-c5ccccc5)nc4c3)c3c(N)nccn32)C1 has what recorded total motile sperm?
2.7

====

Recorded progressively motile sperm values for a group of compounds are listed next.
tested on: human spermatozoa; assay: progressively motile sperm, percent change vs DMSO (non-capacitating); higher = more of the measured sperm population than DMSO, for viability, fewer PI-positive (dead) cells than DMSO; extreme values may be limits of the assay; conditions: incubation time: 6h incubation, 9.99 µM
Expressed in %, but write only the number.

• O=c1sn(-c2cccc3ccccc23)c(=O)n1Cc1ccccc1 = -4

What reported progressively motile sperm corresponds to CC(C)(C)c1ccc(S(=O)(=O)Nc2cnc3[nH]c(C(=O)N[C@H]4CCC[C@H]4O)c(-c4ccccc4)c3c2)cc1 on human spermatozoa?
-9.71

What reported progressively motile sperm corresponds to Cc1cc2c(C(C)C)c(O)c(O)c(C=O)c2c(O)c1-c1c(C)cc2c(C(C)C)c(O)c(O)c(C=O)c2c1O on human spermatozoa?
12.2

What reported progressively motile sperm corresponds to C=CC[C@@H]1/C=C(\C)C[C@H](C)C[C@H](OC)[C@H]2O[C@@](O)(C(=O)C(=O)N3CCCC[C@H]3C(=O)O[C@H](/C(C)=C/[C@@H]3CC[C@@H](O)[C@H](OC)C3)[C@H](C)[C@@H](O)CC1=O)[C@H](C)C[C@@H]2OC on human spermatozoa?
-13.1

What reported progressively motile sperm corresponds to CCOCc1nc2c(N)nc3ccccc3c2n1CC(C)(C)O on human spermatozoa?
-66.2

What reported progressively motile sperm corresponds to CCN(CC)C(=S)SSC(=S)N(CC)CC on human spermatozoa?
-99.3

What reported progressively motile sperm corresponds to COc1cc(N2CCOCC2)ccc1Nc1ncc(F)c(Nc2ccccc2NS(C)(=O)=O)n1 on human spermatozoa?
-27

What reported progressively motile sperm corresponds to Cc1ccc(S(=O)(=O)c2ccc([N+](=O)[O-])o2)cc1 on human spermatozoa?
-99.3

What reported progressively motile sperm corresponds to CCCCCCCCCCCCCCCCOCC(COCC(F)(F)F)OP(=O)([O-])OC (stereo not given) on human spermatozoa?
-4.8

====

test system: human spermatozoa; test: total motile sperm, percent change vs DMSO (non-capacitating); higher = more of the measured sperm population than DMSO, for viability, fewer PI-positive (dead) cells than DMSO; settings: incubation time: 10min incubation, 9.99 µM
measurement_type: total motile sperm
Note: a bare number is incomplete; add the unit.

In the examples that follow, each entry is paired with its recorded total motile sperm.
• CC(C)(C)c1ccc(S(=O)(=O)Nc2ccc(OC(F)(F)F)c(F)c2-c2ccc(C(=O)O)c3ncccc23)cc1F [CCR6 inhibitor] = 2.36%
• CCc1c(C)nc(SCC(=O)Nc2nc(-c3ccc(OC)cc3)cs2)[nH]c1=O [T16Ainh-A01] = 2.04%
• OCCN(CCO)c1nc(N2CCCCC2)c2nc(N(CCO)CCO)nc(N3CCCCC3)c2n1 [Dipyridamole] = 0.517%

Item Cc1[nH]c(/C=C2\C(=O)Nc3ccc(S(=O)(=O)Cc4c(Cl)cccc4Cl)cc32)c(C)c1C(=O)N1CCC[C@@H]1CN1CCCC1 has what recorded total motile sperm?
-0.103%

Item NC(=O)c1cc(-c2ccc(S(=O)(=O)[C@H]3CC[C@H](Nc4ccc(C(F)(F)F)cn4)CC3)cc2)ccn1 [CCR6 inhibitor 1] has what recorded total motile sperm?
-1.18%

Item COc1cc(N2CCOCC2)ccc1Nc1ncc(F)c(Nc2ccccc2NS(C)(=O)=O)n1 has what recorded total motile sperm?
-2.71%

Item COc1cc(SC)ccc1C(=O)N1CCC(Cc2ccccc2)CC1 [JX 401] has what recorded total motile sperm?
3.2%

Item O.O.O.OO.OO.[K+].[OH-].[V].c1cnc2c(c1)ccc1cccnc12 [bpV(phen)] has what recorded total motile sperm?
1.25%

Item COC(=O)c1c(C)[nH]c(C)c1C(=O)c1ccccc1Cc1ccccc1 has what recorded total motile sperm?
0.541%

====

tested on: HepG2; assay: HepG2 toxicity (resazurin), effect normalised to DMSO (DMSO = 0); higher = more features changed / larger toxic effect; conditions: incubation time: 70h incubation; 30 µM
Counter-ions that a name gives are not always drawn.
Recorded HepG2 toxicity values for a group of compounds are listed next.
Expressed in %, but write only the number.

• C[C@@H]1O[C@@H](O[C@H]2C[C@@H](O)[C@]3(CO)[C@H]4[C@H](O)C[C@]5(C)[C@@H](C6=CC(=O)OC6)CC[C@]5(O)[C@@H]4CC[C@]3(O)C2)[C@H](O)[C@H](O)[C@H]1O = 93.2
• COc1cc2nc(N(C)CCCNC(=O)C3CCCO3)nc(N)c2cc1OC (configuration not stated) = 4.29
• [O]=[V]([O-])([O-])[O-] [Sodium orthovanadate] = 8.27
• CNS(=O)(=O)c1ccccc1Nc1nc(Nc2ccc(C3CCN(C)CC3)cc2OC)ncc1Cl = 103
• COc1cc2ncn(-c3cc(OCc4ccccc4C(F)(F)F)c(C(N)=O)s3)c2cc1OC = 9.88
• CCCCCCCCOc1ccc(-c2noc([C@@H]3CCCN3C(=N)N)n2)cc1C(F)(F)F = 102
• CNc1ccc2oc(C[C@H]3O[C@@]4(CC[C@H]3C)O[C@H]([C@H](C)C(=O)c3ccc[nH]3)[C@H](C)C[C@H]4C)nc2c1C(=O)O = 102
• COc1ccc2nc([S@@+]([O-])Cc3ncc(C)c(OC)c3C)[nH]c2c1 = 4.42

Item Clc1ccc(C(OCCN2CCCCC2)c2ccccc2)cc1 (configuration not stated) [Cloperastine hydrochloride] has what recorded HepG2 toxicity?
8.06

Item CC1(C)CC=C(c2ccccc2)c2cc(/C=C/c3ccc(C(=O)O)cc3)ccc21 has what recorded HepG2 toxicity?
-8.39

Item COc1cn(-c2ccc(-n3cccn3)cc2F)nc(-c2ccnn2-c2ccccc2)c1=O has what recorded HepG2 toxicity?
8.05

Item CN(C)CCCn1cc(C2=C(c3c[nH]c4ccccc34)C(=O)NC2=O)c2ccccc21 has what recorded HepG2 toxicity?
8.33

Item N=C(N)Nc1ccc(C(=O)Oc2ccc3cc(C(=N)N)ccc3c2)cc1 has what recorded HepG2 toxicity?
4.06

====

tested on: HeLa; assay: HeLa toxicity: nuclei-count effect normalised to DMSO (DMSO = 0); higher = more features changed / larger toxic effect; conditions: incubation time: 24h incubation; 29.9 µM
Recorded HeLa toxicity: nuclei-count effect normalised values for a group of compounds are listed next.
Expressed in %, but write only the number.

In the examples that follow, each entry is paired with its recorded HeLa toxicity: nuclei-count effect normalised.
• COc1cc(C(=O)N2CCC(N3CCN(C)CC3)CC2)ccc1Nc1ncc2c(n1)N(C)c1ccccc1C(=O)N2C = 53.9
• CC1(C)CC=C(c2ccccc2)c2cc(/C=C/c3ccc(C(=O)O)cc3)ccc21 = 8.35
• Cn1c(=O)c2c(-c3ccccc3)n3c(c2n(C)c1=O)[C@H](c1ccc(Br)o1)Oc1ccc(C(=O)O)cc1-3 = -3.14
• COc1cn(-c2ccc(-n3cccn3)cc2F)nc(-c2ccnn2-c2ccccc2)c1=O = 2.94
• Cc1cc2c(C(C)C)c(O)c(O)c(C=O)c2c(O)c1-c1c(C)cc2c(C(C)C)c(O)c(O)c(C=O)c2c1O = 73.1
• Oc1c(Cl)cc(Cl)c(Cl)c1Cc1c(O)c(Cl)cc(Cl)c1Cl = 33.9
• N=C(N)Nc1nc(-c2ccc(Cl)cc2)cs1 [n-[4-(4-Chlorophenyl)-1,3-thiazol-2-yl]guanidine] = 14.3
• COc1cc(C)c2c(Oc3cccc(C(F)(F)F)c3)c(OC)cc(NC(C)CCCN)c2n1 (configuration not stated) = 96.3

Item COC(=O)[C@]1(C)CC[C@]2(C)CC[C@]3(C)C4=CC=C5C(=CC(=O)C(O)=C5C)[C@]4(C)CC[C@@]3(C)[C@@H]2C1 has what recorded HeLa toxicity: nuclei-count effect normalised?
98.7

Item COc1cc2ncn(-c3cc(OCc4ccccc4C(F)(F)F)c(C(N)=O)s3)c2cc1OC has what recorded HeLa toxicity: nuclei-count effect normalised?
78.9
